B1: tRNA (parent)
chain: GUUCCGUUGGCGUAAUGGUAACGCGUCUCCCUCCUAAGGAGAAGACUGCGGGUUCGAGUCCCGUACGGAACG

Variants of: B1
Assay Summary: yeast fitness relative to wild type (ratio to wild type); higher = fitter; tRNA-Arg(CCU), competitive growth, 37 C, YPD
Variants at the floor of the assay were thinned out.
Experimental Readout: yeast fitness
// no unit string in output, number only

sequence_variant="A14G U26A C27G C62A" endpoint_result=0.571
sequence_variant="U2A C4U U28A C30U" endpoint_result=0.56
sequence_variant="C5U C49A" endpoint_result=0.78
sequence_variant="C29G C33G" endpoint_result=0.59

Field: next variant
Any idea what its yeast fitness is? The variant is C34G C62G
0.559
